Every entry's value here was drawn from patent US8383581B2.

- assay.remarks: Stability of peptides in human plasma
- Assay type: in vitro ADME
- conditions: human, plasma, pH 7.8
Where a SMILES comes first, the peptide text is derived from it. [ ]: non-standard residue; d: D form. ξ: configuration not given here. αMePhe(2,6-F2) = C[C@](N)(Cc1c(F)cccc1F)C(=O)O; ξαMePhe(2,6-F2) = CC(N)(Cc1c(F)cccc1F)C(=O)O; αMePhe(2-F) = C[C@](N)(Cc1ccccc1F)C(=O)O; ξαMePhe(2-F) = CC(N)(Cc1ccccc1F)C(=O)O; hArg = N=C(N)NCCCC[C@H](N)C(=O)O; Nle = CCCC[C@H](N)C(=O)O; ξαMeP = CC1(C(=O)O)CCCN1; Ac5c = NC1(C(=O)O)CCCC1; Ac3c = NC1(C(=O)O)CC1; Aib = CC(C)(N)C(=O)O
observable: metabolised at 24 h, 2 μM (%)
Lab book: enter the figure in %, no units written.

Ask: Which metabolised at 24 h, 2 μM value is on record for CCCC[C@H](NC(=O)C(C)(Cc1ccccc1F)NC(=O)[C@H](CCC(N)=O)NC(=O)[C@@H](NC(=O)[C@H](CCC(=O)O)NC(=O)C(C)(C)NC(=O)[C@@H](NC(=O)C(C)(C)N)C(C)C)[C@@H](C)CC)C(=O)N[C@@H](Cc1c[nH]cn1)C(=O)N[C@@H](CCC(N)=O)C(=O)N[C@@H](CCCCNC(=N)N)C(=O)N[C@@H](C)C(=O)NC(C)(C)C(=O)NC(C)(Cc1ccccc1F)C(N)=O (stereo partly drawn) [Seq. ID. 161] (H-[Aib]V[Aib]EIQ[ξαMePhe(2-F)][Nle]HQ[hArg]A[Aib][ξαMePhe(2-F)]-NH2) ?
Reply: 78

Ask: Another molecule to look at: CCCC[C@H](NC(=O)C(C)(Cc1c(F)cccc1F)NC(=O)[C@H](CCC(N)=O)NC(=O)[C@@H](NC(=O)[C@H](CCC(=O)O)NC(=O)C(C)(C)NC(=O)[C@@H](NC(=O)C1(N)CCCC1)C(C)C)[C@@H](C)CC)C(=O)N[C@@H](Cc1c[nH]cn1)C(=O)N[C@@H](CCC(N)=O)C(=O)N[C@@H](CCCCNC(=N)N)C(=O)NC(C)(C)C(=O)NC(C)(Cc1c(F)cccc1F)C(=O)NC(C)(Cc1ccccc1F)C(N)=O (stereo partly drawn) [Seq. ID. 220] (H-[Ac5c]V[Aib]EIQ[ξαMePhe(2,6-F2)][Nle]HQ[hArg][Aib][ξαMePhe(2,6-F2)][ξαMePhe(2-F)]-NH2)
Reply: 75

Ask: How about CCCC[C@H](NC(=O)[C@](C)(Cc1c(F)cccc1F)NC(=O)[C@H](CCC(N)=O)NC(=O)[C@@H](NC(=O)[C@H](CCC(=O)O)NC(=O)C(C)(C)NC(=O)[C@@H](NC(=O)C1(N)CCCC1)C(C)C)[C@@H](C)CC)C(=O)N[C@@H](Cc1c[nH]cn1)C(=O)N[C@@H](CCC(N)=O)C(=O)N[C@@H](CCCCNC(=N)N)C(=O)NC(C)(C)C(=O)N[C@@H](CCCCN)C(=O)N[C@@](C)(Cc1ccccc1F)C(N)=O [Seq. ID. 85] (H-[Ac5c]V[Aib]EIQ[αMePhe(2,6-F2)][Nle]HQ[hArg][Aib]K[αMePhe(2-F)]-NH2) ?
Reply: 77

Ask: Check CCCC[C@H](NC(=O)C(C)(Cc1ccccc1F)NC(=O)[C@H](CCC(N)=O)NC(=O)[C@@H](NC(=O)[C@H](CCC(=O)O)NC(=O)C(C)(C)NC(=O)[C@@H](NC(=O)C(C)(C)N)C(C)C)[C@@H](C)CC)C(=O)N[C@@H](Cc1c[nH]cn1)C(=O)N[C@@H](CCC(N)=O)C(=O)N[C@@H](CCCCNC(=N)N)C(=O)N1CCCC1(C)C(=O)N[C@@H](CCCCN)C(=O)NC(C)(Cc1ccccc1F)C(N)=O (stereo partly drawn) [Seq. ID. 56] (H-[Aib]V[Aib]EIQ[ξαMePhe(2-F)][Nle]HQ[hArg][ξαMeP]K[ξαMePhe(2-F)]-NH2) too.
Reply: 0

Ask: Repeat for the following molecule: CCCC[C@H](NC(=O)C(C)(Cc1ccccc1F)NC(=O)[C@H](CCC(N)=O)NC(=O)[C@@H](NC(=O)[C@H](CCC(=O)O)NC(=O)C1(NC(=O)[C@@H](NC(=O)C(C)(C)N)C(C)C)CCCC1)[C@@H](C)CC)C(=O)N[C@@H](Cc1c[nH]cn1)C(=O)N[C@@H](CCC(N)=O)C(=O)N[C@@H](CCCCNC(=N)N)C(=O)N1CCCC1(C)C(=O)N[C@@H](CCCCN)C(=O)NC(C)(Cc1ccccc1F)C(N)=O (stereo partly drawn) [Seq. ID. 62] (H-[Aib]V[Ac5c]EIQ[ξαMePhe(2-F)][Nle]HQ[hArg][ξαMeP]K[ξαMePhe(2-F)]-NH2)
Reply: 0

Ask: Quick one: CCCC[C@H](NC(=O)C(C)(Cc1c(F)cccc1F)NC(=O)[C@H](CCC(N)=O)NC(=O)[C@@H](NC(=O)[C@H](CCC(=O)O)NC(=O)C(C)(C)NC(=O)[C@@H](NC(=O)C1(N)CC1)C(C)C)[C@@H](C)CC)C(=O)N[C@@H](Cc1c[nH]cn1)C(=O)N[C@@H](CCC(N)=O)C(=O)N[C@@H](CCCCNC(=N)N)C(=O)N1CCCC1(C)C(=O)N[C@@H](CCCCN)C(=O)NC(C)(Cc1ccccc1F)C(N)=O (stereo partly drawn) [Seq. ID. 75] (H-[Ac3c]V[Aib]EIQ[ξαMePhe(2,6-F2)][Nle]HQ[hArg][ξαMeP]K[ξαMePhe(2-F)]-NH2)
Reply: 78
